- Measurement Notes: Acute toxicity in mice
- Format: in vivo
- Conditions: mouse, in vivo, ip, abdominal injection

>  <Molecule>
CC(C)C[C@H](NC(=O)[C@H](C)NC(=O)C[C@H](O)[C@H](CC(C)C)NC(=O)[C@@H](NC(=O)C(C)Oc1ccccc1)C(C)C)[C@@H](O)CC(=O)O (stereo partly drawn)

>  <LD50>
2100 mg/kg

$$$$
>  <Molecule>
CC(C)C[C@H](NC(=O)[C@H](C)NC(=O)C[C@H](O)[C@H](CC(C)C)NC(=O)[C@@H](NC(=O)COc1ccccc1)C(C)C)[C@@H](O)CC(=O)O

>  <LD50>
1500 mg/kg

$$$$
>  <Molecule>
CC(C)C[C@H](NC(=O)[C@H](C)NC(=O)C[C@H](O)[C@H](CC(C)C)NC(=O)[C@@H](NC(=O)c1ccccc1)C(C)C)[C@@H](O)CC(=O)O

>  <LD50>
1350 mg/kg

$$$$

----------
- Test system: enzyme which decomposes R-Val-Val-X-Ala-X to Val-X-Ala-X
- Measurement Notes: Effect of various inhibitors and metal ions on the enzyme activity
- Type: biochemical, Bacillus sphaericus ATCC 14577
Overview of reported Relative activity across a group of compounds:

>  <Compound>
CC(=O)[O-].CC(=O)[O-].[Hg+2] [Mercuric Acetate]

>  <Relative activity>
0

$$$$
>  <Compound>
O=C(O)c1cc[c]([Hg][Cl])cc1 [p-Chloromercuribenzoate]

>  <Relative activity>
2

$$$$
>  <Compound>
[Ca+2].[Cl-].[Cl-] [Calcium Chloride]

>  <Relative activity>
110

$$$$
>  <Compound>
O=C(O)CI [Monoiodoacetic Acid]

>  <Relative activity>
84

$$$$
>  <Compound>
[N-]=[N+]=[N-].[Na+] [NaN3]

>  <Relative activity>
100

$$$$
>  <Compound>
CC(=O)[O-].CC(=O)[O-].[Pb+2] [Lead Acetate]

>  <Relative activity>
43

$$$$

----------
- Measurement Notes: Solubility in water
- Type: physicochemical
- Conditions: 20° C
Overview of reported Solubility in water across a group of compounds:
Measurement Name: Solubility in water

>  <Compound>
CC(C)C[C@H](NC(=O)[C@H](C)NC(=O)C[C@H](O)[C@H](CC(C)C)NC(=O)[C@@H](NC(=O)C(C)Oc1ccccc1)C(C)C)[C@@H](O)CC(=O)O (stereo partly drawn) [Phenoxypropionyl-Val-X-Ala-X, N-2-phenoxypropionyl-Val-X-Ala-X]

>  <Reported Result>
15,000 mcg/ml

$$$$
>  <Compound>
CC(C)C[C@H](NC(=O)[C@H](C)NC(=O)C[C@H](O)[C@H](CC(C)C)NC(=O)[C@@H](NC(=O)COc1ccccc1)C(C)C)[C@@H](O)CC(=O)O [Phenoxyacetyl-Val-X-Ala-X, N-phenoxyacetyl-Val-X-Ala-X]

>  <Reported Result>
20,000 mcg/ml

$$$$
>  <Compound>
CCCCCC(=O)N[C@H](C(=O)N[C@H](C(=O)N[C@@H](CC(C)C)[C@@H](O)CC(=O)N[C@@H](C)C(=O)N[C@@H](CC(C)C)[C@@H](O)CC(=O)O)C(C)C)C(C)C [Pepstatin B]

>  <Reported Result>
100 µg/mL

$$$$
>  <Compound>
CC(C)C[C@H](NC(=O)[C@H](C)NC(=O)C[C@H](O)[C@H](CC(C)C)NC(=O)[C@@H](NC(=O)C(C)O)C(C)C)[C@@H](O)CC(=O)O (stereo partly drawn) [Lactoyl-Val-X-Ala-X, lactoyl-Val-X-Ala-X]

>  <Reported Result>
≥ 50,000 mcg/ml

$$$$
>  <Compound>
CC(=O)C(CC(C)C)NC(=O)[C@H](C)NC(=O)CC(O)C(CC(C)C)NC(=O)[C@@H](NC(=O)[C@@H](NC(=O)CC(C)C)C(C)C)C(C)C (stereo partly drawn) [Pepstanone A, isovaleryl-Val-Val-X-Ala-X']

>  <Reported Result>
50 µg/mL

$$$$
>  <Compound>
CC(C)CC(=O)N[C@H](C(=O)N[C@@H](CC(C)C)[C@@H](O)CC(=O)N[C@@H](C)C(=O)N[C@@H](CC(C)C)[C@@H](O)CC(=O)O)C(C)C [Isovaleryl-Val-X-Ala-X, N-isovaleryl-Val-X-Ala-X]

>  <Reported Result>
5,000 mcg/ml

$$$$
